Hello, the source for this data is patent US4471131A, in case you need it.

What Plant Response Index (F) was measured for each of the following?
- System: Pennsylvania Smartweed
- ASSAY: post-emergence herbicidal activity, greenhouse
- Assay type: in vivo
- EXPERIMENTAL PARAMETERS: Table II; 4 WAT; 11.2 kg/h; formulated immediately prior to treatment

Below, each entry is followed by its recorded Plant Response Index (F) result.
[
  {
    "MOLECULE": "CC(C)OC(=O)CNCP(=O)(O)O[Si](c1ccccc1)(c1ccccc1)C(C)(C)C",
    "Plant Response Index (F)": "4 (100% inhibition)"
  },
  {
    "MOLECULE": "CC(C)(C)[Si](C)(C)OP(=O)(CNCC(=O)OCCc1ccccc1)O[Si](C)(C)C(C)(C)C [Ex. 10, Hydrate]",
    "Plant Response Index (F)": "3 (75-99% inhibition)"
  },
  {
    "MOLECULE": "CC(C)(C)[Si](C)(C)OC(=O)CNCP(=O)(O[Si](C)(C)C(C)(C)C)O[Si](C)(C)C(C)(C)C",
    "Plant Response Index (F)": "1 (25-49% inhibition)"
  }
]

// moving on: another record for Plant Response Index (F)
For reference, reported Plant Response Index (F) for CC(C)OC(=O)CNCP(=O)(O[Si](c1ccccc1)(c1ccccc1)C(C)(C)C)O[Si](c1ccccc1)(c1ccccc1)C(C)(C)C stands at 3 (75-99% inhibition)
